Reported LD50 values for a set of compounds
# assay: toxicity (LD50) in mice
# condition context: mouse, in vivo, ip, read-out: LD50 in mice, i.p.
# Source text: The values of the ED50 of the compounds of examples 2, 3 and 4 against the two microbial strains and the toxicity (LD50) of the compounds are reported in the following Table
Kindly provide the numeric value in mg/kg only, without the unit symbol.

[
  {
    "compound": "COC1C=COC2(C)Oc3c(C)c(O)c4c(O)c(c(C=NN(C)CC(C)OP(=O)(O)O)c(O)c4c3C2=O)NC(=O)C(C)=CC=CC(C)C(O)C(C)C(O)C(C)C(OC(C)=O)C1C (stereo not drawn)",
    "reported result": 770
  }
]

Q: LD50 for COC1C=COC2(C)Oc3c(C)c(O)c4c(O)c(c(C=NN(C)CCOP(=O)(O)O)c(O)c4c3C2=O)NC(=O)C(C)=CC=CC(C)C(O)C(C)C(O)C(C)C(OC(C)=O)C1C (stereo not drawn) ?
A: 592

====

# assay: toxicity (LD50) in mice
# condition context: mouse, in vivo, iv, read-out: LD50 in mice, i.v.
Let's look at some compounds and their measured LD50.
Only the number, expressed in mg/kg, is required.

These recorded examples may help you get a feel for the data.
[
  {
    "compound": "COC1C=COC2(C)Oc3c(C)c(O)c4c(O)c(c(C=NN(C)CC(C)OP(=O)(O)O)c(O)c4c3C2=O)NC(=O)C(C)=CC=CC(C)C(O)C(C)C(O)C(C)C(OC(C)=O)C1C (stereo not drawn) [Example 2]",
    "property label": "LD50",
    "reported result": 665
  },
  {
    "compound": "COC1C=COC2(C)Oc3c(C)c(O)c4c(O)c(c(C=NN(C)CCOP(=O)(O)O)c(O)c4c3C2=O)NC(=O)C(C)=CC=CC(C)C(O)C(C)C(O)C(C)C(OC(C)=O)C1C (stereo not drawn) [Example 4]",
    "property label": "LD50",
    "reported result": 507
  }
]

Consider now this further compound.
Q: What does the data say about its LD50? Entry: CCC(CN(C)N=Cc1c2c(O)c3c(O)c(C)c4c(c3c1O)C(=O)C(C)(OC=CC(OC)C(C)C(OC(C)=O)C(C)C(O)C(C)C(O)C(C)C=CC=C(C)C(=O)N2)O4)OP(=O)(O)O (stereo not drawn) [Example 3]
A: 525

These entries and their values trace back to patent US4271155A.
